# System: MS2 coat protein
# Procedure details: apparent KD of MS2 coat protein; higher = weaker reporter binding
# Condition notes: Eterna round: R107; input ligand: theophylline 2 mM
Result type: apparent KD of MS2 coat protein (nM)
Field format: number, assumed nM, no unit text.

ACAAGAGGUGGAAGGAGCGGGAGACAUGAGGAUCACCCAUGUGAAGUUUCGAGAGGAUCAUCCCAGGUAGGUCGCCAUGUCGAAA [ojjomullin] ... 228
GGUCAGCAGUCGGCCGCCACUAGUAUACAUGAGGAUCACCCAUGUCCCUUGCGCCUCACCGAUUUUAGGACCGGGACACUGCCUG [theeternabot_exclusion_MS2_Trp_B_9] ... 40.2
UGUAUGGACUGAAGGAGCGCAUCAAAAUAACAUGAGGAUCACCCAUGUAAGGCGAAAGCCGUGCAGGUAGGUCGCAGUCCAUACU [ArgBX 3] ... 18.8
GGGCAAGAGGGAAGGAGCGUCAGCUGAGUCACAUGAGGAUCACCCAUGUCGCACAUAGUGUGACAGGUAGGUCGCCCUCUGCCCU [Zaistiqu] ... 201
AGUCUUAUAGGAAGGAGCGCAUACUUCACAUGAGGAUCACCCAUGUCAAGACGUGAGUCAGUGCAGGUAGGUCGCCUAACUAAGA [Same State - Arginine B (Freestyle 13)] ... 32.1

Looking up CCUAUAUAGUCGGCCGCCACUGACUACAUGAGGAUCACCCAUGUAACACGAACAUGGUCCUGGAUCAGGACCGGGACUAUAUAGG [Tryp B Ex t5] , I found its apparent KD of MS2 coat protein recorded as 22.2

Looking up GUUUUCAAGUCGGCCGCCACUGAUACAAUCCUCACCGGUUCACAUGAGGAUCACCCAUGUUCGCUCAGGACCGGGACCUUCUGUG [theeternabot_exclusion_MS2_Trp_B_3] , I found its apparent KD of MS2 coat protein recorded as 142

Looking up AAAACUCAUGGCUUAUAUCCGUGUCUCGAAGGAGCGUACAGCGGUACAGGUAGGUCGCGAGACAUGAGGAUCACCCAUGUGUAAA [XArg-A 20 V1&2 original #dotplot2>1] , I found its apparent KD of MS2 coat protein recorded as 1.46

Looking up UUCGUUUGCGGAAGGAGCGACGGACAUCGGUGACCCACGCACAUGAGGAUCACCCAUGUACGUCAGGUAGGUCGCCGCUAAGAGU [XArg-B4] , I found its apparent KD of MS2 coat protein recorded as 41.3

Looking up CGGCCCUCACACGAGGAUCACCCGUGUGAUACCAGCCUGGAAACAGGCCCUUGGCAGCACAAGGUCAUCAAAGAUGACCAAGCCG [TheoAX 22 #SwitchBubble] , I found its apparent KD of MS2 coat protein recorded as 31.8

Looking up ACAAUAUUGAGUUUGUCUCAAGUUUCAGAAGGAGCGUGAGGAAUCACAGGUAGGUCGCUGAUAACAUGAGGAUCACCCAUGUAUU [JR_SSArginiA_Sub005] , I found its apparent KD of MS2 coat protein recorded as 45.1

Looking up CUGUGUCCUUCGGCCGCCACUACAUGAGGAUCACCCAUGUCGUUACGGCUCCCAAUGACGCUUUGUAGGACCGGGAAGGAGUAUG [Tienancebe] , I found its apparent KD of MS2 coat protein recorded as 10.9
